Alpha-1B adrenergic receptor (Mesocricetus auratus) (UniProt P18841): reported pKi for various compounds.
Sequence (P18841 whole entry, looked up): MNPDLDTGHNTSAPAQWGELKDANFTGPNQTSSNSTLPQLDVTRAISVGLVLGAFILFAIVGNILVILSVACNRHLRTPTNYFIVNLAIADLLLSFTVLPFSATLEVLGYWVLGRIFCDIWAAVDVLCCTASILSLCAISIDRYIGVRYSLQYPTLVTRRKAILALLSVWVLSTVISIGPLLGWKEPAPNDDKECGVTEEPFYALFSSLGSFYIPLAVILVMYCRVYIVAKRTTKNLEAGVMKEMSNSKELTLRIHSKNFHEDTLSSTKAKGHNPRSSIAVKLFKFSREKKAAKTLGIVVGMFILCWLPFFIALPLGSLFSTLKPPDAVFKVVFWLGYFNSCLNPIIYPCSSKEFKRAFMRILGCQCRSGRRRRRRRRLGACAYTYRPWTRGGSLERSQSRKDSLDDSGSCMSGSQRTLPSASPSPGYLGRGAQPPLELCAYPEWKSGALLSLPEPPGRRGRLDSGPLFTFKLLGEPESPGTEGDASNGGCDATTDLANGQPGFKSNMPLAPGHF
Numbers only, as −log10 of the molar value.

[[record]]
compound = "COc1cc2nc(N3CCN(C(=O)c4ccco4)C4CCCCC43)nc(N)c2cc1OC (configuration not stated)"
reported_metric = "pKi"
result_number = 9.23


Next compound, please.
Recall the recorded pKi for `COc1cc2nc(N3CCN(C(=O)c4ccco4)[C@@H]4CCCC[C@@H]43)nc(N)c2cc1OC` with Alpha-1B adrenergic receptor (Mesocricetus auratus) (UniProt P18841) and state it.
9.16
